Where do these numbers come from? They come from patent US9073821B2.

- Assayed system: Pseudomonas aeruginosa LpxC enzyme (Pseudomonas aeruginosa (strain ATCC 15692 / DSM 22644 / CIP 104116 / JCM 14847 / LMG 12228 / 1C / PRS 101 / PAO1), UniProt P47205)
- Assay method text: biochemical
- Assay type: biochemical
- Condition info: inhibitory activity on Pseudomonas aeruginosa LpxC enzyme, class symbols A/B/C; read-out: Enzyme inhibitory activity
Measurement kind: IC50

CNC(=O)C(C(=O)NO)N(C)C(=O)c1ccc(-c2ncccc2F)cc1 (stereo not shown) :: > 100 nM
CNC(=O)C(C(=O)NO)N(C)C(=O)c1ccc(C#Cc2coc(CN3CCOCC3)c2)cc1 (stereo not shown) :: < 10 nM
CC(C)OCCNC(=O)C(NC(=O)c1ccc(-c2ccc(OCCO)cc2)cc1)C(=O)NO (stereo not shown) :: 10 to 100 nM
O=C(NC(C(=O)NO)C(=O)NCC(F)F)c1ccc(-c2ccc(OCCO)cc2)cc1 (stereo not shown) :: 10 to 100 nM
CNC(=O)C(C(=O)NO)N(C)C(=O)c1ccc(C#Cc2ccc(CN3CCOCC3)cc2)cc1 (stereo not shown) :: < 10 nM

I would be grateful if you could share the reported IC50 for CNC(=O)C(C(=O)NO)N(C)C(=O)c1ccc(-c2ccc(/C=N/N(C)C)cc2)cc1 (stereo not shown) .
< 10 nM

I would be grateful if you could share the reported IC50 for CNC(=O)C(C(=O)NO)N(C)C(=O)c1ccc(-c2ccc(OCCCN3CCC(F)(F)CC3)cc2)cc1 (stereo not shown) .
< 10 nM
